Data origin, for the record: PubChem BioAssay AID488890

- Experiment description: growth inhibition of non-replicating M. tuberculosis (AID 488890);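 note: plate controls were DMSO cells for no effect and high antibiotic wells for full effect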
- Run conditions: Mycobacterium tuberculosis non-replicating, at 25 µM, stronger effect = higher value
About 1,300 (0.41%) of roughly 320,000 compounds were called active. About 3% were inconclusive and are not listed. A selection follows. Measured potencies and affinities stand elsewhere.
Measured quantity: inhibition (%)
Give bare numbers, in %.

Worked cases, answers included:
[
  {
    "Compound": "CC1C(C)C(O)(c2ccccc2)CCN1C (stereo not drawn)",
    "Measured quantity": "inhibition",
    "Units label": "%",
    "Readout number": -18.2
  },
  {
    "Compound": "CCN1CCC(NCCc2ccc(F)cc2)CC1",
    "Measured quantity": "inhibition",
    "Units label": "%",
    "Readout number": -11.9
  }
]

Note: attention shifts to another entry.
Documented inhibition of OC1(c2ccccc2)CCN(Cc2ccccc2)CC1 : -5.95

---

Could you please report measured inhibition for the items listed next?
- Experiment description: growth inhibition of non-replicating M. tuberculosis (AID 488890);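 note: plate controls were DMSO cells for no effect and high antibiotic wells for full effect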
- Run conditions: Mycobacterium tuberculosis non-replicating, at 25 µM, stronger effect = higher value
The whole screen tested about 320,000 compounds, of which about 1,300 (0.41%) were called active. Not shown: some 3% with an inconclusive outcome. A selection follows. Entries with a potency or affinity are not part of this list.
One number for each entry, in %.

Worked cases, answers included:
[
  {
    "Compound": "COc1ccc(CNC(=O)c2cnccn2)cc1",
    "Measured quantity": "inhibition",
    "Readout number": 66.2
  },
  {
    "Compound": "O=C(CNC(=O)c1ccco1)Nc1ccc(F)cc1",
    "Measured quantity": "inhibition",
    "Readout number": -22.8
  }
]

Hello, I would appreciate it if you could give inhibition for each entry below.
1. O=c1[nH]c(=O)n(Cc2ccccc2)c(O)c1/C=C1\C=Nc2ccccc21
2. CNC(=O)COC(=O)c1ccc([N+](=O)[O-])cc1Cl
3. O=C(COc1ccc2oc(-c3ccccc3)cc(=O)c2c1)Nc1ccccc1

OUT:
66.3
11.7
52.2

Hello, I would appreciate it if you could give inhibition for each entry below.
1. O=P(Cc1cccc[n+]1[O-])(c1ccccc1)c1ccccc1
2. O=C(CSc1nnc(Nc2ccccc2)s1)Nc1ccc(S(=O)(=O)N2CCOCC2)cc1
3. Cc1ccc(C2=C(O)c3ccccc3C(=O)C2=O)cc1
4. O=C(NCc1ccc(Cl)cc1)c1cnccn1

OUT:
1: -13.7; 2: 6.81; 3: 71.2; 4: 68.3

Hello, I would appreciate it if you could give inhibition for each entry below.
1. Cc1ccccc1OCCCC(=O)NCc1ccco1
2. CC1(C)CC(=O)C(N=Nc2cccc([N+](=O)[O-])c2)=C(O)C1
3. O=C(COc1cc(O)c2c(=O)cc(-c3ccccc3)oc2c1)c1ccccc1
4. Cc1cccc(-c2nc3cc([N+](=O)[O-])ccc3o2)c1
5. O=C(Cc1ccc(Br)cc1)OCC(=O)c1ccc[nH]1
6. CC1Sc2ccc(S(=O)(=O)CCC(=O)N3CCN(c4ccccc4)CC3)cc2NC1=O (configuration not stated)
7. NS(=O)(=O)c1ccc(CNC(=O)c2cnccn2)cc1

OUT:
15.7
-5.61
-7.87
4.61
79.4
12.1
-8.46

Hello, I would appreciate it if you could give inhibition for each entry below.
1. O=C(CCNc1cc(Cl)cc(Cl)c1)c1ccco1
2. Cc1onc(-c2c(F)cccc2Cl)c1C(=O)N(Cc1ccccc1)C(C)C
3. CCOc1ccc(CNC(=O)Cn2ccc3cc(S(=O)(=O)N4CCCC4)ccc32)cc1
4. COc1ccc(C(=O)c2ccccc2)c(O)c1
5. COc1ccc(-c2[nH]nc3oc(=O)cc(C)c23)cc1
6. O=C(Cc1ccc(Cl)c(Cl)c1)OCC(=O)c1ccc[nH]1
7. Cc1cc2c(C)c(C)c(=O)[nH]c2cc1N
8. CCOC(=O)c1cc(=O)c2ccc(OCC(=O)Nc3ccccc3)cc2o1

OUT:
1: -7.67; 2: 7.25; 3: 9.09; 4: 26.2; 5: 7.5; 6: 70.6; 7: 6.16; 8: 0.19

Hello, I would appreciate it if you could give inhibition for each entry below.
1. CCCCn1c(O)c(/C=C2\C=Nc3ccccc32)c(=O)[nH]c1=O
2. O=C(c1cccc(F)c1)N1CCN(C(=O)C2CC2)CC1
3. CC(C)NC(=O)Cn1c(SCC(=O)c2ccc(F)cc2)nc2ccccc21
4. O=C1C(c2ccncc2)=C(O)c2ccccc21
5. CCOC(=O)c1c(C)nc2ccc(C)cn12
6. CC(=O)c1cccc(S(=O)(=O)NCCC(=O)O)c1

OUT:
59
0.47
7.83
26.2
37
-0.2

Hello, I would appreciate it if you could give inhibition for each entry below.
1. Cc1nnc(N/N=C/c2cc([N+](=O)[O-])c(N3CCC(C)CC3)cc2N2CCC(C)CC2)n1N
2. CC(=O)OC(C(=O)NC1CCCCC1)c1ccncc1 (configuration not stated)
3. O=c1cc(-c2ccccc2)nc2nc(SCc3ccccc3)[nH]n12
4. CCOC(=O)c1nnc(-c2cccs2)nc1Oc1ccc(Cl)cc1
5. O=C(CCNC(=O)c1ccco1)Nc1ccc(Cl)c(C(F)(F)F)c1
6. Cn1c(O)c(/C=C2/C=CC=N2)c(=O)[nH]c1=O
7. NC(=O)N/N=C/c1ccc(-c2ccc([N+](=O)[O-])cc2)o1
8. CC(C)NC(=O)C(c1ccc(F)cc1)N(C(=O)CCC(=O)Nc1ccccn1)C1CCCCC1 (configuration not stated)

OUT:
37.3
-2.68
60.3
-0.21
4.07
75.9
45.3
-1.84

Hello, I would appreciate it if you could give inhibition for each entry below.
1. COc1ccccc1C(=O)NCCC(=O)Nc1ccc(S(=O)(=O)N2CCC(C)CC2)cc1
2. O=C(COC(=O)c1ccc[nH]c1=O)c1ccc(Cl)s1
3. CC1CCCCC1NC(=O)CN1C(=O)NC(C)(c2ccc(OC(F)F)cc2)C1=O (configuration not stated)
4. COC(=O)[C@H](CCSC)NC(=O)NCCc1ccc(F)cc1

OUT:
1. 27.4
2. 21.8
3. -1.28
4. -16.4

---

- Experiment description: growth inhibition of non-replicating M. tuberculosis (AID 488890);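 note: plate controls were DMSO cells for no effect and high antibiotic wells for full effect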
- Run conditions: Mycobacterium tuberculosis non-replicating, at 25 µM, stronger effect = higher value
The whole screen tested about 320,000 compounds, of which about 1,300 (0.41%) were called active. About 3% were inconclusive and are not listed. Only a sample is shown. Entries with a potency or affinity are not part of this list.
Measured quantity: inhibition (%)
Answers are plain numbers, in %.

Worked cases, answers included:
[
  {
    "Molecule": "COc1ccccc1NC(=O)CC1SC(=N)N(c2ccccc2)C1=O (configuration not stated)",
    "inhibition (%)": -5.17
  },
  {
    "Molecule": "CC[n+]1c(/C=C(\\C)SC)sc2ccccc21",
    "inhibition (%)": 0.12
  },
  {
    "Molecule": "Cc1c(Cl)cccc1NC(=O)C1CCCN(S(C)(=O)=O)C1 (configuration not stated)",
    "inhibition (%)": 1.51
  },
  {
    "Molecule": "Cc1ccc(NC(=S)N2CCN(S(=O)(=O)c3ccccc3)CC2)cc1",
    "inhibition (%)": -12.6
  },
  {
    "Molecule": "O=C(NC1CCCCC1)c1cc(-c2ccc(Cl)cc2)on1",
    "inhibition (%)": -0.38
  }
]

Hello, I would appreciate it if you could give inhibition for each entry below.
1. CC[n+]1c(/C=C(/C)SC)sc2ccccc21
2. Cc1ccc(C(=O)CCS(=O)(=O)c2ccc(F)cc2)cc1

OUT:
1. 67
2. 69.2

Hello, I would appreciate it if you could give inhibition for each entry below.
1. O=C(Nc1ncc(Cc2ccccc2Cl)s1)c1ccc([N+](=O)[O-])cc1
2. CCCNC(=O)Cn1sc2nc(C)cc(C)c2c1=O
3. Cc1ccc(-c2nnc(-c3ccc(NC(=O)c4ccco4)cc3)o2)cc1

OUT:
[-27.1, 2.63, -12.3]

Hello, I would appreciate it if you could give inhibition for each entry below.
1. Cc1cc(Cl)nc(Cl)c1C(=O)NCCc1ccccc1
2. CCOC(=O)CNC(=O)CN1CCC(c2nc3ccccc3[nH]2)CC1

OUT:
[5.34, -5.38]

---

Could you please report measured inhibition for the items listed next?
- Experiment description: growth inhibition of non-replicating M. tuberculosis (AID 488890);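 note: plate controls were DMSO cells for no effect and high antibiotic wells for full effect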
- Run conditions: Mycobacterium tuberculosis non-replicating, at 25 µM, stronger effect = higher value
Among all 320,000 compounds or so, about 1,300 (0.41%) were called active. Not shown: some 3% with an inconclusive outcome. A selection follows. Potency and affinity values are given separately.
One number for each entry, in %.

Worked cases, answers included:
[
  {
    "Compound": "O=C(c1ncc[nH]1)c1cccs1",
    "Units label": "%",
    "inhibition": -0.79
  },
  {
    "Compound": "Cc1ccc(N(C(=O)CNC(=O)c2ccco2)C(C(=O)NCC2CCCO2)c2ccccc2)cc1C (configuration not stated)",
    "Units label": "%",
    "inhibition": 16
  },
  {
    "Compound": "Cc1cc(S(=O)(=O)NCCC2=CCCCC2)ccc1Br",
    "Units label": "%",
    "inhibition": 34.3
  }
]

Hello, I would appreciate it if you could give inhibition for each entry below.
1. NC(=O)CSc1nnc(-c2ccncc2)o1
2. COc1ccc(-c2nnc(SCC(=O)c3cccs3)o2)cc1
3. Cc1ccc(C(=O)NC(C)c2ccc(S(N)(=O)=O)cc2)s1 (configuration not stated)

OUT:
1: 1.06; 2: 63.8; 3: -0.6

Documented inhibition of O=C(O)c1ccccc1NCc1ccncc1 : 4.81
